Molecular target: T1, human IL-33 (R&D Systems, #3625-IL-010/CF) (human, UniProt O95760 112-270)
T1 sequence (looked up): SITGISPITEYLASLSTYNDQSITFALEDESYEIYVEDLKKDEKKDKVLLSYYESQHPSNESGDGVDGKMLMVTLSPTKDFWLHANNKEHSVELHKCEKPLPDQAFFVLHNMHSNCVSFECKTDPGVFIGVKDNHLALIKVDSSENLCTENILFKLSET
Assay: cell-based or functional assay
Reported IC50, blocking of IFN-γ release from human PBMC induced by 260 pM hIL-33, donor #603486 by item:
RECORDED_METRIC: IC50, blocking of IFN-γ release from human PBMC induced by 260 pM hIL-33, donor #603486 (M)

BINDER | DATA_VALUE
H4H9667P (antibody, human IgG4, V domains shown, Human IgG4 Fc (H4H)) VH: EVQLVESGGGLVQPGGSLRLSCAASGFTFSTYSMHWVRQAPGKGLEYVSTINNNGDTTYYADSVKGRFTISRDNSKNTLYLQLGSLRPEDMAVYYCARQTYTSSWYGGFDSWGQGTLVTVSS VL: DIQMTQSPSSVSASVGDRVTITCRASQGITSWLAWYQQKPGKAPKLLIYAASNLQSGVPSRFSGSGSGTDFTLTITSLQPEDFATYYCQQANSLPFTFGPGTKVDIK | 8.07e-09
H4H9671P (antibody, human IgG4, V domains shown, Human IgG4 Fc (H4H)) VH: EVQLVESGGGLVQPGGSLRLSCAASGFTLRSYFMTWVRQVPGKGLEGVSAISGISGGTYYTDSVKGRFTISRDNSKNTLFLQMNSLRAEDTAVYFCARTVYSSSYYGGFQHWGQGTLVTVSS VL: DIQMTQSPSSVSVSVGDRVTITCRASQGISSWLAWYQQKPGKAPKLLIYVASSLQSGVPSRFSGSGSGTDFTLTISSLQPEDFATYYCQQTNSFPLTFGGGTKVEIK | 2.97e-09
H4H9675P (antibody, human IgG4, V domains shown, Human IgG4 Fc (H4H)) VH: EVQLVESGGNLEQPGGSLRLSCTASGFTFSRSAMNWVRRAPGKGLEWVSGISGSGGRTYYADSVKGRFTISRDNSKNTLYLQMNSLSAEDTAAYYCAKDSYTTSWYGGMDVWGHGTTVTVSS VL: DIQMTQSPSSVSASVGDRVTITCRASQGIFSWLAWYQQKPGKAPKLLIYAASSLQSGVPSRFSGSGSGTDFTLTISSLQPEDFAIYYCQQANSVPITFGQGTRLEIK | 1.75e-10
